# PROCEDURE TEXT: Cassette dosing and serum analysis for determination of bioavailability
# Format: in vivo, rat
# RECORDED CONDITIONS: male Sprague Dawley rats, oral cassette of 6 compounds as sodium salts, total dose 10 mg/kg, plasma at 4, 8 and 12 h, linear trapezoidal rule
AUC (average AUC 0→12 h) values for the compounds below.

SMILES RECORD: C#CCN(c1cnc(N(CC)CC)nc1N[C@@H](Cc1ccc(OC(=O)N2CCCC2)cc1)C(=O)O)S(=O)(=O)c1ccc(F)cc1F
AUC (average AUC 0→12 h): 23.808 (μg/mL)h
//
SMILES RECORD: CCN(CC)c1ncc(N(CC)S(=O)(=O)c2ccc(Cl)cc2)c(N[C@@H](Cc2ccc(OC(=O)N3CCC3)cc2)C(=O)O)n1
AUC (average AUC 0→12 h): 2.1113 (μg/mL)h
//
SMILES RECORD: CCN(CC)c1ncc(N(C)S(=O)(=O)c2ccc(F)cc2F)c(N[C@@H](Cc2ccc(OC(=O)N3CCC3)cc2)C(=O)O)n1
AUC (average AUC 0→12 h): 1.283 (μg/mL)h

====

# PROCEDURE TEXT: Cassette dosing and serum analysis for determination of bioavailability
# Format: in vivo, rat
# RECORDED CONDITIONS: male Sprague Dawley rats, oral cassette of 6 compounds as sodium salts, total dose 10 mg/kg, plasma at 4, 8 and 12 h, linear trapezoidal rule

SMILES RECORD: CCN(CC)c1ncc(N(C)S(=O)(=O)c2ccc(Cl)cc2)c(N[C@@H](Cc2ccc(OC(=O)N3CCCC3)cc2)C(=O)O)n1
AUC (average AUC 0→12 h): 13.829 (μg/mL)h

SMILES RECORD: CCN(CC)c1ncc(N(CC)S(=O)(=O)c2ccc(F)cc2F)c(N[C@@H](Cc2ccc(OC(=O)N3CCCC3)cc2)C(=O)O)n1
AUC (average AUC 0→12 h): 4.7816 (μg/mL)h

SMILES RECORD: CCN(CC)c1ncc(N(CC)S(=O)(=O)c2ccc(F)cc2)c(N[C@@H](Cc2ccc(OC(=O)N3CCCCC3)cc2)C(=O)O)n1
AUC (average AUC 0→12 h): 0.5125 (μg/mL)h

SMILES RECORD: CCN(CC)c1ncc(N(C)S(=O)(=O)c2ccc(Cl)cc2)c(N[C@@H](Cc2ccc(OC(=O)N3CCC3)cc2)C(=O)O)n1
AUC (average AUC 0→12 h): 2.0774 (μg/mL)h

SMILES RECORD: C#CCN(c1cnc(N(CC)CC)nc1N[C@@H](Cc1ccc(OC(=O)N2CCC2)cc1)C(=O)O)S(=O)(=O)c1ccc(F)cc1F
AUC (average AUC 0→12 h): 0.8628 (μg/mL)h

SMILES RECORD: CCN(CC)c1ncc(N(CC)S(=O)(=O)c2ccc(F)cc2)c(N[C@@H](Cc2ccc(OC(=O)N3CCC3)cc2)C(=O)O)n1
AUC (average AUC 0→12 h): 0.8979 (μg/mL)h

SMILES RECORD: CCN(CC)c1ncc(N(C)S(=O)(=O)c2ccc(F)cc2)c(N[C@@H](Cc2ccc(OC(=O)N3CCCC3)cc2)C(=O)O)n1
AUC (average AUC 0→12 h): 22.271 (μg/mL)h

SMILES RECORD: C#CCN(c1cnc(N(CC)CC)nc1N[C@@H](Cc1ccc(OC(=O)N2CCCC2)cc1)C(=O)O)S(=O)(=O)c1ccc(F)cc1
AUC (average AUC 0→12 h): 90.317 (μg/mL)h

SMILES RECORD: CCN(CC)c1ncc(N(C)S(=O)(=O)c2ccc(F)cc2)c(N[C@@H](Cc2ccc(OC(=O)N3CCCCC3)cc2)C(=O)O)n1
AUC (average AUC 0→12 h): 2.1654 (μg/mL)h

SMILES RECORD: CCN(CC)c1ncc(N(CC)S(=O)(=O)c2ccc(Cl)cc2)c(N[C@@H](Cc2ccc(OC(=O)N3CCCC3)cc2)C(=O)O)n1
AUC (average AUC 0→12 h): 14.798 (μg/mL)h

SMILES RECORD: CCN(CC)c1ncc(N(CC)S(=O)(=O)c2ccc(F)cc2)c(N[C@@H](Cc2ccc(OC(=O)N3CCCC3)cc2)C(=O)O)n1
AUC (average AUC 0→12 h): 15.971 (μg/mL)h

SMILES RECORD: CCN(CC)c1ncc(N(C)S(=O)(=O)c2ccc(F)cc2F)c(N[C@@H](Cc2ccc(OC(=O)N3CCCC3)cc2)C(=O)O)n1
AUC (average AUC 0→12 h): 14.818 (μg/mL)h

SMILES RECORD: C#CCN(c1cnc(N(CC)CC)nc1N[C@@H](Cc1ccc(OC(=O)N2CCC2)cc1)C(=O)O)S(=O)(=O)c1ccc(F)cc1
AUC (average AUC 0→12 h): 4.7528 (μg/mL)h

SMILES RECORD: CCN(CC)c1ncc(N(C)S(=O)(=O)c2ccc(F)cc2)c(N[C@@H](Cc2ccc(OC(=O)N3CCC3)cc2)C(=O)O)n1
AUC (average AUC 0→12 h): 2.4082 (μg/mL)h

SMILES RECORD: CCN(CC)c1ncc(N(CC)S(=O)(=O)c2ccc(F)cc2F)c(N[C@@H](Cc2ccc(OC(=O)N3CCC3)cc2)C(=O)O)n1
AUC (average AUC 0→12 h): 0.3566 (μg/mL)h
